# System: RAW264.7
# Assay method text: Cytotoxicity against mouse RAW264.7 cells assessed as cell viability at 50 uM after 18 hrs by MTT assay in presence of LPS
# Type: cell-based
# Cond: raw264.7, 18 h
Property name: Activity

>>> result("COC/C=C/c1cc(OC)c(O[C@@H]2O[C@H](CO)[C@@H](O)[C@H](O)[C@H]2O)c(OC)c1")
"Non-toxic"
>>> result("O=c1c(O)c(-c2ccc(O)c(O)c2)oc2cc(O)cc(O)c12 [QUERCETIN]")
"Non-toxic"
>>> result("O=c1c(O[C@@H]2O[C@H](CO)[C@H](O)[C@H](O)[C@H]2O)c(-c2ccc(O)c(O)c2)oc2cc(O)cc(O)c12 [HYPEROSIDE]")
"Non-toxic"
>>> result("O=C(O[C@H]1[C@H](Oc2c(-c3ccc(O)c(O)c3)oc3cc(O)cc(O)c3c2=O)O[C@H](CO)[C@@H](O)[C@@H]1O)c1cc(O)c(O)c(O)c1")
"Non-toxic"
>>> result("O=C(O[C@@H]1O[C@@H]2COC(=O)c3cc(O)c(O)c(O)c3-c3c(cc(O)c(O)c3O)C(=O)O[C@H]([C@H]1O)[C@@H]2O)c1cc(O)c(O)c(O)c1 [CORILAGIN]")
"Non-toxic"
>>> result("O=C1C[C@H](C(=O)O)c2c1oc(=O)c1cc(O)c(O)c(O)c21")
"Non-toxic"
